target_or_test_system: Ataxin-2 (Homo sapiens)
assay: qHTS for Inhibitors of ATXN expression.
Assay type: functional
In all, about 400,000 compounds went through this assay and about 2,100 (0.53%) were called active. Inconclusive results (about 14%) are left out. The rule behind the calls is not given here. Many of the other results were omitted from the sample, so actives are more common in it than they were.
Pick from active, inactive when you respond.

{"columns": ["compound", "target_or_test_system", "classification"],
 "data": [
  ["OCCCNc1nc(-c2ccccc2)c2cc(Cl)ccc2n1", "Ataxin-2 (Homo sapiens)", "inactive"],
  ["COc1ccc(/C=C/C(=O)C2C(=O)C=C(C)OC2=O)cc1O (stereo not given)", "Ataxin-2 (Homo sapiens)", "inactive"],
  ["Cn1cc(C(=O)CCl)c2ccccc21", "Ataxin-2 (Homo sapiens)", "active"],
  ["COc1ccc(C(=O)/C=C/c2ccc(O)cc2)c(O)c1CC=C(C)C", "Ataxin-2 (Homo sapiens)", "active"],
  ["Cn1c2ccccc2n2c(=O)cc(-c3ccccc3)c(C#N)c12", "Ataxin-2 (Homo sapiens)", "inactive"]
]}

Query: # fetch the recorded call for CC(C)Cn1nc(NC(=O)c2cccc(Cl)c2)c2cc3ccccc3nc21 here
Response: inactive

Query: Recorded test outcome, item COc1ccc(C(=O)/C=C/c2ccc(O)cc2)c(O)c1C/C=C(\C)CCC=C(C)C
Response: active

Query: Record lookup: outcome of this test for O=C1C=CC2(O[C@H](c3ccccc3)[C@@H](c3ccccc3)O2)[C@H](Sc2ccccc2O)C1 ?
Response: active

Query: Entry CCOC(=O)/C=c1\s/c(=C\c2ccc3cc(OC)ccc3c2)c(=O)n1CC(=O)NCc1ccc2c(c1)OCO2 : call = ?
Response: inactive

---

target_or_test_system: Ataxin-2 (Homo sapiens)
assay: qHTS for Inhibitors of ATXN expression.
Type: functional
Hit rate of the full screen: of about 400,000 compounds, about 2,100 (0.53%) were called active. Inconclusive results (about 14%) are left out. The rule behind the calls is not given here. This is one part of a sample in which actives are shown more often than they occur.
Thanks in advance; please answer with one of these: y = active, n = inactive

{"columns": ["molecule", "classification"],
 "data": [
  ["COC(=O)C1=CN(CCOC23CC4CC(CC(C4)C2)C3)C=C(C(=O)OC)C1c1ccsc1", "n"],
  ["COc1ccc2[nH]c(C(=O)N(Cc3ccccn3)Cc3ccccn3)cc2c1", "n"],
  ["C(=C/c1[nH]ccc2c3ccccc3nc1-2)/c1ccc2c(c1)OCO2", "n"]
]}

Query: Tell me the assay call for CN(Cc1cn(C)nc1-c1ccc(Oc2ccccc2)cc1)Cc1cnc2ccccn12 please.
Response: y

Query: Field: outcome | Entry: O=C(COc1coc(CN2CCc3ccccc32)cc1=O)N1CCCCC1
Response: n

Query: Which outcome was assigned to COc1cc(OC)cc(C(=O)NC(C(=O)NCCc2ccccn2)C(C)C)c1 (stereo not drawn) in this test?
Response: n

Query: // param item: COc1cccc2sc3cc(NCc4ccc(C)o4)ccc3c(=O)c12 ; yields the recorded call
Response: n

Query: So what was the verdict on Cc1ccc(-c2nn(-c3ccccc3)c3[nH]c(=O)c(CNCc4ccccc4)cc23)cc1 in this test?
Response: y

Query: Answer briefly: the call reported for Cc1ccc2nc(Cl)c(CNCc3ccccc3)cc2c1 in this assay.
Response: n

Query: Which outcome was entered for the molecule Cc1ccc(S(=O)(=O)NNc2c3ccccc3nc3ccc(Cl)cc23)cc1 in this test?
Response: n

Query: Per the records of this test, what outcome belongs to CC(C)C(=O)NC(Nc1cc(C(F)(F)F)ccc1Cl)C(Cl)(Cl)Cl (stereo not drawn) ?
Response: n

Query: Recorded test call requested for COc1ccc(-c2c(C)c3ccc(O)cc3oc2=O)cc1OC
Response: n

Query: Dear all, I need the recorded test outcome for Nc1c(C(=O)NCCN2CCOCC2)c2nc3ccccc3nc2n1CCc1ccccc1 , thank you.
Response: n

---

target_or_test_system: Ataxin-2 (Homo sapiens)
assay: qHTS for Inhibitors of ATXN expression.
Format: functional
About 2,100 (0.53%) of roughly 400,000 compounds were called active. Inconclusive results (about 14%) are left out. How the calls were made is not given here. Shown is part of a subset that was picked to be rich in actives.
Valid outcomes are listed here; reply with one: t for active, f for inactive

Examples from the recorded data:
{"columns": ["compound", "classification"],
 "data": [
  ["CCN(Cc1ccc(OC)c(F)c1)C(=O)/C=C/c1ccc(S(=O)(=O)N2CCOCC2)cc1", "f"],
  ["Cc1cc(NC(=O)C(C)SCC(=O)O)no1 (stereo not drawn)", "f"],
  ["COCCCn1c(=O)/c(=C/c2ccccc2OC(C)C)s/c1=C(\\C#N)C(=O)Nc1ccc(C(=O)O)cc1", "f"],
  ["COc1cc(OC)c(OC)cc1CN1CCc2nc(Nc3ccc4c(c3)OCCO4)ncc2C1", "f"],
  ["CCN(CC)c1ccc(/C=c2\\sc3nc4ccccc4n3c2=O)c(O)c1", "f"],
  ["O=[N+]([O-])c1cc(S(=O)(=O)N2CCCCCC2)ccc1Cl", "t"],
  ["CC(=O)Nc1nn(C)c2nc3ccc(C)cc3cc12", "f"],
  ["CCOC(=O)c1c(NC(=O)C(C)Sc2c[nH]c3ccccc23)sc2c1CCC2 (stereo not drawn)", "t"]
]}

Query: Test call, this compound: O=C(NCc1nnc(S)n1-c1cccc(C(F)(F)F)c1)c1ccc(S(=O)(=O)N2CCCCC2)cc1
Response: f

Query: Recorded call for O=C1NC[C@H](Cc2ccccc2)N(C[C@@H]2CCCN2C[C@H](Cc2ccccc2)N2C[C@H](Cc3ccccc3)N(CC3CCCCC3)C(=O)C2=O)C1=O ?
Response: t

Query: For Nc1c(C(=O)Nc2ccccc2)sc2nc(N3CCOCC3)c3c(c12)CCCC3 , what call appears in the results of this test?
Response: f

Query: Each compound tested received a call. Report the one for O=C1CSC(=S)N1N=Cc1cccc(OCc2ccccc2)c1 .
Response: f

Query: Hi team, can someone confirm the assay call for Cc1ccc2nc3c(cc(C(=O)NCCCn4ccnc4)n3C)c(=O)n2c1 ?
Response: f

Query: // return assay outcome for Cc1nc2nc(-c3ccc(F)cc3)cn2nc1C
Response: f

Query: What is the recorded call for this compound in the test? O=C1OCCN1C(=O)[C@H]1[C@H](c2ccccc2)C(c2ccccc2)=NN1c1ccccc1
Response: f

Query: Returns: the outcome recorded for CCCCCC(=O)N1C[C@@H](n2cc(COC(=O)c3ccccc3)nn2)[C@H](O)C[C@@H]1c1ccc(Cl)cc1 in this assay.
Response: t

Query: Can you look up the reported call for CCOC(=O)c1c(NC(=O)C(C)Sc2cccc[n+]2[O-])sc2c1CCN(Cc1ccccc1)C2 (stereo not drawn) for me?
Response: f

Query: Identify the outcome logged in this assay for the compound shown: CCSc1ccc(-c2nn(-c3ccccc3)cc2/C=C(/C#N)C(=O)NCCCOC)cc1
Response: f

Query: Hey, what did the test say about N#Cc1c(N)n(-c2cccc(Cl)c2)c2nc3ccccc3nc12 ?
Response: f

Query: Which outcome was assigned to O=[N+]([O-])c1cc(-c2ncccn2)c([N+](=O)[O-])s1 in this test?
Response: t

Query: Test call, this compound: COc1ccc(C2C3=C(O)CC(C)(C)CC3=Nc3c2c(=O)n(C)c(=O)n3C)cc1OC (stereo not drawn)
Response: f

Query: Short answer needed: outcome of this test for COc1cc2c(cc1NC(=O)COC(=O)/C=C/c1ccccc1)oc1ccccc12 ?
Response: t

Query: Kindly provide the recorded test outcome for the following compound: O=C(O)c1cccc(N2C(=O)c3cc4cccc(Br)c4cc3C2=O)c1
Response: f

---

target_or_test_system: Ataxin-2 (Homo sapiens) (UniProt Q99700)
Sequence (Q99700 whole entry): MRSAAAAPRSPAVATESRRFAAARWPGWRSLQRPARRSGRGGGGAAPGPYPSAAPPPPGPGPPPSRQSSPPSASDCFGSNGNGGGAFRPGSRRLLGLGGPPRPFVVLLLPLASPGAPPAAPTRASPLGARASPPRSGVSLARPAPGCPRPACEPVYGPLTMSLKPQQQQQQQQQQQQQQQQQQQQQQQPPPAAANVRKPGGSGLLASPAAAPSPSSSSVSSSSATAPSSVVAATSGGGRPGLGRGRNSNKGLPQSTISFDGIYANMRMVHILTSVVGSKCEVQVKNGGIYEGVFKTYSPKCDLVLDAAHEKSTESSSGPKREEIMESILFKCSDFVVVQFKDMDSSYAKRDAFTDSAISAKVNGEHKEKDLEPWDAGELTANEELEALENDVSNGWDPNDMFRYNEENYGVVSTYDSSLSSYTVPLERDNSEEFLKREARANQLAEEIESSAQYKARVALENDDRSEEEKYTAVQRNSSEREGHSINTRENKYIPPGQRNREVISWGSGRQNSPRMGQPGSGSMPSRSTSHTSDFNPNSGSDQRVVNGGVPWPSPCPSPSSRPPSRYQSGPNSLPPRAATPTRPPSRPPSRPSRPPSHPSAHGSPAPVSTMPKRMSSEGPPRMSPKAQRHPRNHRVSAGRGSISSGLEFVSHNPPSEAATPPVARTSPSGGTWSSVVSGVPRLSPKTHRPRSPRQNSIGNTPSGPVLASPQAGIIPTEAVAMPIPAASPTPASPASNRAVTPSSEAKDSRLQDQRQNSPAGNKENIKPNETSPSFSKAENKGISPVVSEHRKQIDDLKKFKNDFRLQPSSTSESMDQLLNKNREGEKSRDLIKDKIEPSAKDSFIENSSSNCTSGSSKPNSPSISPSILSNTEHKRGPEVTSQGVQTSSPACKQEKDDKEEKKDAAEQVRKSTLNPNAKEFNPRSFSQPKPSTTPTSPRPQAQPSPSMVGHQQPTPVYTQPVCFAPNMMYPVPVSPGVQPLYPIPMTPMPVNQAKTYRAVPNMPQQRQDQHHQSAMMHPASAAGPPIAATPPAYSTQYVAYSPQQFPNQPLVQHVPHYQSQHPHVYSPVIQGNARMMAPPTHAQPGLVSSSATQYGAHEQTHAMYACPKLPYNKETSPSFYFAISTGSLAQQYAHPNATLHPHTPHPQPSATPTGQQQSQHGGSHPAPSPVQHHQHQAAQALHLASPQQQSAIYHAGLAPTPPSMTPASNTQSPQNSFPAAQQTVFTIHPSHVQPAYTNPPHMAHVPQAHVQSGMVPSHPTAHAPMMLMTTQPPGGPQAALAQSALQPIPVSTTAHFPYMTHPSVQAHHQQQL
assay: qHTS for Inhibitors of ATXN expression.
Assay type: functional
The campaign covered roughly 400,000 compounds. About 2,100 (0.53%) were called active. About 14% were inconclusive and are not listed. The rule behind the calls is not given here. This excerpt belongs to a sample that is enriched for actives.
Respond using exactly one of the listed classes: active, inactive

Recorded results for 3 compounds are shown here.
{"columns": ["compound", "target_or_test_system", "classification"],
 "data": [
  ["COc1ccc(Cc2n[nH]c(=S)n(N)c2=O)cc1", "Ataxin-2 (Homo sapiens) (UniProt Q99700)", "inactive"],
  ["CC[C@H](C)/C=C/C1=CC2=C(Cl)C(=O)[C@@]3(C)OC(=O)C(C(=O)[C@H](C)[C@@H](C)O)=C3C2=CO1", "Ataxin-2 (Homo sapiens) (UniProt Q99700)", "active"],
  ["Cc1ccc(N2C(=O)/C(=C/NC3CCS(=O)(=O)C3)c3ccccc3C2=O)c(C)c1 (centres undefined)", "Ataxin-2 (Homo sapiens) (UniProt Q99700)", "inactive"]
]}

Query: What classification did COc1ccc(/C=N/N2C(C)CCCC2C)cc1OC (centres undefined) end up with in this test?
Response: inactive

Query: Assay outcome for CCc1csc(CCNC(=O)C2CCC(=O)N(Cc3ccccc3F)C2)n1 (centres undefined) : what was it?
Response: inactive

Query: What was the test verdict on Cc1nn(CCCC(=O)NCc2ccc(F)cc2)c(=O)c2nccn12 ?
Response: inactive
